Where do these numbers come from? They come from patent US20240076392A1.

Target: human CD123 on CHO cells expressing human CD123 (human) (UniProt P26951)
Sequence (P26951 19-378): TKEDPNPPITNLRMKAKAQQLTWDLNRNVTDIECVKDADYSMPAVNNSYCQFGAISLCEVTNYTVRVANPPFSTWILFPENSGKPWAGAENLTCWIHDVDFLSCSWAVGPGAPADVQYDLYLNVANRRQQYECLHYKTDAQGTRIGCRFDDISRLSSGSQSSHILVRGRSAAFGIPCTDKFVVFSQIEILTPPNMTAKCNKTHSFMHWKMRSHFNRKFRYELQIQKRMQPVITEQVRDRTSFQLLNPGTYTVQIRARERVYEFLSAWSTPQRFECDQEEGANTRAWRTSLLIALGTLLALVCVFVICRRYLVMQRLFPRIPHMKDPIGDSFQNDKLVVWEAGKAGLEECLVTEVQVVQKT
Assay: flow cytometry on CHO cells expressing human CD123, 4-parameter fit (direct binding; column headed IC50)
observable: EC50 (half-maximal binding concentration)
Form entry: enter the amount, then its unit.

# input Fill in: EC50 (half-maximal binding concentration) of h32716-1-1 IgG (antibody, V domains shown) VH: QVQLVQSGAEVKKPGSSVKVSCKASGYIFTNYGMNWVRQAPGQGLEWMGWINTYTGESTYSADFKGRVTITADESTSTAYMELSSLRSEDTAVYYCARSGGYDPMDYWGQGTLVTVSS VL: DIVMTQSPDSLAVSLGERATINCRASESVDNYGNTFMHWYQQKPGQPPKLLIYRASNLESGVPDRFSGSGSGTDFTLTISSLQAEDVAVYYCQQSNEDPPTFGQGTRLEIK is ___
# output 7.4 nM
